target: KRAS G12V (Homo sapiens (Human), UniProt P01116+P62937, G12V); experiment: Ras-Raf disruption/FRET/MOA assay (BRAF RBD, Cyclophilin A); type: biochemical; settings: read-out: KRAS G12V FRET IC50
Sequence (P01116 other isoform, or with tags, fused parts or gaps G12V, one chain of several): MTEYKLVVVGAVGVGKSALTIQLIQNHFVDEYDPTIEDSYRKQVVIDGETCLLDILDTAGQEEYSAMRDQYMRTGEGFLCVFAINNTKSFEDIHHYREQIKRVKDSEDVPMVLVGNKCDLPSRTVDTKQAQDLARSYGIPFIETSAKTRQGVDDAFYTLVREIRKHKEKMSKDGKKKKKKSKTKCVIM
pIC50: −log10 of the molar value.
Test readout: pIC50

CCn1c(-c2cccnc2[C@H](C)OC)c2c3cc(ccc31)-c1csc(n1)C[C@H](NC(=O)[C@H](C(C)C)N(C)C(=O)N1CC(OC)C1)C(=O)N1CCC[C@H](N1)C(=O)OCC(C)(C)C2 [Compound A205]	6.00 to 7.00

Here is another compound to look at.
pIC50 reported for this compound CCn1c(-c2cccnc2[C@H](C)OC)c2c3cc(ccc31)-c1cc(O)cc(c1)C[C@H](NC(=O)[C@H](C(C)C)N(C)C(=O)[C@]1(F)CCN(C(=O)OC)C1)C(=O)N1CCC[C@H](N1)C(=O)OCC(C)(C)C2 : 6.00 to 7.00

====

target: KRAS G12S (Homo sapiens (Human), UniProt P01116+P62937, G12S); experiment: Ras-Raf disruption/FRET/MOA assay (BRAF RBD, Cyclophilin A); format: biochemical; details: read-out: KRAS G12S FRET IC50
Sequence (P01116 other isoform, or with tags, fused parts or gaps G12S): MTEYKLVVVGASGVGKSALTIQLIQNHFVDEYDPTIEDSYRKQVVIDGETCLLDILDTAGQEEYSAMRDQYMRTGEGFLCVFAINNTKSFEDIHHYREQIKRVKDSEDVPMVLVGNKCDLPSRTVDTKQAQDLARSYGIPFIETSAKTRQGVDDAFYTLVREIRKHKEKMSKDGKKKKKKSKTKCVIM
Sequence (P62937 whole entry): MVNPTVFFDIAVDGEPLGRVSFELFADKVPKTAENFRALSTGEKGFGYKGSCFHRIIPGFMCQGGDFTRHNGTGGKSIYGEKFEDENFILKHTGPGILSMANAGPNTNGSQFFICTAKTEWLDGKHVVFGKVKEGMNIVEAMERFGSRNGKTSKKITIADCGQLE
Test readout: IC50

IC50 reported for this compound CCn1c(-c2cccnc2[C@H](C)OC)c2c3cc(ccc31)-c1csc(n1)C[C@H](NC(=O)[C@H](C(C)C)N(C)C(=O)N1CCN3C(=O)CN(C)C[C@H]3C1)C(=O)N1CCC[C@H](N1)C(=O)OCC(C)(C)C2 : 0.01 to 0.1 µM

IC50 reported for this compound CCn1c(-c2cccnc2[C@H](C)OC)c2c3cc(ccc31)-c1cc(O)cc(c1)C[C@H](NC(=O)[C@H](C(C)C)N(C)C(=O)C1CCC1)C(=O)N1CCC[C@H](N1)C(=O)OCC(C)(C)C2 : 0.01 to 0.1 µM

IC50 reported for this compound CCn1c(-c2cccnc2[C@H](C)OC)c2c3cc(ccc31)-c1csc(n1)C[C@H](NC(=O)[C@H](C(C)C)N(CCc1ccncc1)C1CC1)C(=O)N1CCC[C@H](N1)C(=O)OCC(C)(C)C2 : 0.1 to 1 µM

IC50 reported for this compound CCn1c(-c2cccnc2[C@H](C)OC)c2c3cc(ccc31)-c1cc(O)cc(c1)C[C@H](NS(=O)(=O)C1CC1)C(=O)N1CCC[C@H](N1)C(=O)OCC(C)(C)C2 : > 10 µM

IC50 reported for this compound CCn1c(-c2cccnc2[C@H](C)OC)c2c3cc(ccc31)-c1cc(O)cc(c1)C[C@H](NS(=O)(=O)CC1CC1)C(=O)N1CCC[C@H](N1)C(=O)OCC(C)(C)C2 : > 10 µM

====

The following molecules are listed with their measured pIC50 values.
target: KRAS G12C (Homo sapiens (Human), UniProt P01116+P62937, G12C); test: Ras-Raf disruption/FRET/MOA assay (BRAF RBD, Cyclophilin A); assay type: biochemical; conditions: read-out: KRAS G12C FRET IC50
Sequence (P01116-2 other isoform, or with tags, fused parts or gaps G12C, one chain of several): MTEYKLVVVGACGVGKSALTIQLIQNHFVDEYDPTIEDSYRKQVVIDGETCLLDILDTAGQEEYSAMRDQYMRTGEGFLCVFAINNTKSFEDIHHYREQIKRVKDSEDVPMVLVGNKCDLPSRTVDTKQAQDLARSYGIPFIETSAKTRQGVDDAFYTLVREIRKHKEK
pIC50: −log10 of the molar value.

pIC50 reported for this molecule CO[C@@H](C)c1ncccc1-c1c2c3cc(ccc3n1CC(F)(F)F)-c1csc(n1)C[C@H](NC(=O)[C@H](C(C)C)N(C)C(=O)N1CC(N(C)C)C1)C(=O)N1CCC[C@H](N1)C(=O)OCC(C)(C)C2 : 7.00 to 8.00

pIC50 reported for this molecule CCn1c(-c2cccnc2[C@H](C)OC)c2c3cc(ccc31)-c1csc(n1)C[C@H](NC(=O)[C@@H]1CCO1)C(=O)N1CCC[C@H](N1)C(=O)OCC(C)(C)C2 : 6.00 to 7.00

pIC50 reported for this molecule CCn1c(-c2cccnc2[C@H](C)OC)c2c3cc(ccc31)-c1csc(n1)C[C@H](NC(=O)[C@H](C(C)C)N(C)C(=O)N1C[C@@H]3OCCN(C)[C@@H]3C1)C(=O)N1CCC[C@H](N1)C(=O)OCC(C)(C)C2 : 7.00 to 8.00

The reported measurements were obtained from patent US20250195521A1.
